Data origin: the DeepSol protein solubility set

PROTOCOL SUMMARY: soluble on expression in E. coli; label from the status in PepcDB or PDB records
MEASURED PARAMETER: soluble on expression in E. coli

[[record]]
biosequence = "MDPSQQTPQETVVAPVAPLLEDQLELDMKHCFENLIVIDVGANLTNKKYSRDLDSVVQRARDAGVQKLMVHGTSVKSSKEALRLSRIYPDIIYSTAGIHPHDSKSIVEEPATWFDLEHIAQAQECVAIGPCGLDYQRDFSEPDAQKQIFAKQLHLAIRLNKPLLIHERSAQLDLLEILDKFENLPPVIIRGFMGTAEEALKYLDRRFYISLTGYLCKDKSDTGVRRLLEDGTLPLDRLLVETDAPFMYPNTRASKLPQHVKTGITERSLLYLHRYCTFQRNEPCSLPAIVEMIAAFMKKSPDEVALATAFNALKLFGLSLEHHHHHH"
result_value = "soluble"

[[record]]
biosequence = "SSGLVPRGPLGSHMDAVDATMEKLRAQCLSRGASGIQGLARFFRQLDRDGSRSLDADEFRQGLAKLGLVLDQAEAEGVCRKWDRNGSGTLDLEEFLRALRPPMSQAREAVIAAAFAKLDRSGDGVVTVDDLRGVYSGRAHPKVRSGEWTEDEVLRRFLDNFDSSEKDGQVTLAEFQDYYSGVSASMNTDEEFVAMMTSAWQLKL"
result_value = "soluble"


---

PROTOCOL SUMMARY: soluble on expression in E. coli; label from the status in PepcDB or PDB records
MEASURED PARAMETER: soluble on expression in E. coli

Sample answers from the record:
[[record]]
biosequence = "MGSDKIHHHHHHVEYPLPAKNSNLVGENQYYVVPEGKLTLEAIATKFQLGLTNLLEANPGVDPFLPKPGSTLVIPHQLILPNAPREGIVINVAEMRLYYYPKGKNIVEVLPIGIGQIGKDTPEKWVTTVQRKRANPTWTPTPRIRKEYLAKGEVLPAVWPAGPDNPMGLFALYIGNLYAIHGTNATFGIGLRISQGCIRLRDADIEHLFNSVPEGTRVEFTNQPIKASEEPDGNRYLEVHQPLSRTMAEYESAEPVGLSMHRDIAKFVAHADTDSFVLKRLLEQRNGIPTRINQ"
measured_parameter = "soluble on expression in E. coli"
result_value = "not soluble"

[[record]]
biosequence = "MAIQLSKGQRIDLTKTNPGLTKAVIGLGWDTNKYSGGHDFDLDASAFLVDAHDNCVNDLDFVFYNNLEHPSGGVIHTGDNRTGEGDGDDEQIIVDFSKIPAHIEKIGITVTIHDAEARSQNFGQVSNAFVRVVDEETQNELLRFDLGEDFSIETAVVVCELYRHGGEWKFNAIGSGFSGGLAALCRNYGLQVLEHHHHHH"
measured_parameter = "soluble on expression in E. coli"
result_value = "soluble"

[[record]]
biosequence = "MGSDKIHHHHHHMHVYESDVSWIDDRRTEVSVGDHRIEVDSPPEFGGPEGQLYPETLFPSVLASCLLTTFLEFKDRMGINLKSWNSHVTAELGPSPEKGFKFHRIKIHVKIGVNDEDKEKIPRAMQLAEKYCFISRAIRNNVEEIVDYEFV"
measured_parameter = "soluble on expression in E. coli"
result_value = "not soluble"

[[record]]
biosequence = "MRVKTIMTQNPVTITLPATRNYALELFKKYKVRSFPVVNKEGKLVGIISVKRILVNPDEEQLAMLVKRDVPVVKENDTLKKAAKLMLEYDYRRVVVVDSKGKPVGILTVGDIIRRYFAKSEKYKGVEIEPYYQRYVSIVWEGTPLKAALKALLLSNSMALPVVDSEGNLVGIVDETDLLRDSEIVRIMKSTELAASSEEEWILESHPTLLFEKFELQLPNKPVAEIMTRDVIVATPHMTVHEVALKMAKYSIEQLPVIRGEGDLIGLIRDFDLLKVLVKSKA"
measured_parameter = "soluble on expression in E. coli"
result_value = "soluble"


The sequence listed as MGSDKIHHHHHHMEATTNNMKDVTGAELLICTIGHSTHPLEEFINLLKKNEVTHLLDVRTVPRSRHNPQFNKETLPDALGAIGIKYTHLSGLGGLRHARKDSINEGWRNASFRGYADYMQTQEFVENVNRVIELAAHDRCALMCAEAVPWRCHRSLIADALVVRGVRVEDIIDNHGRKPHSLTPWAQAEGVRIFYPAQQGRLI has a reported soluble on expression in E. coli of not soluble

According to the records, this sequence MSFAIEIVIKAPMDIVCDYIIEDEKIKEWNTFIIENRYPSNMDKENPRVGDKYITVQKVGKKIFEAEVEILEYDAPHIISLGSEMKQGYSAMTYMLEEDEEGTALTLISEYEPSNFYYKMMYKLTGWISRGLTMEQMERLAECVEAAYHKEDLEHHHHHH displays soluble on expression in E. coli of not soluble

The recorded soluble on expression in E. coli for entry MNEINESYDTDSVREFTVSDADAGPYALAEGPDGALWFTLVHRGAVARRDPDDGRVTVHPVGDGPTVIAPGPDGALWFTEYRAHRIGRITPEGHYASFAPLTPEGGPFGITAGPDGAMWFTLSSADRVGRVTMDGEVTEHPAPGAFPSALTAGPDGALWCTLNQGNAIGRLTPDGHGTAYPLPTPGAAPVGIAAGPDGALWFTEIGAGRIGRITVTGDLTEYPLSDPAARPHAVTAGPNGALWFTEWGSGRVGRITVDGRVTSYPLSRTDCEPHGIAVHDGALWCALETGSLARIQVPA equals soluble

For MGSDKIHHHHHHMSFSLRNYQVELILDIKKSMLAGHRKIMVQSPPRSGKTVCMAHIAKNATNKQKTVLFFSHRKEINEQVFETFSRAGVDMGLVYIGTVGSIVRKLGKLPVPTLVLVDEAHHIKASQYQQILKYYHQAVQLFFTGTPIRLDGSGFDDMADDLVVGKSILWLQEHGNISEFDYYSINLLDQAKLRKRQGEYTNQSIDDSFDFSNSTAIT the sequence record lists soluble on expression in E. coli as not soluble

---

PROTOCOL SUMMARY: soluble on expression in E. coli; label from the status in PepcDB or PDB records
MEASURED PARAMETER: soluble on expression in E. coli

[[record]]
biosequence = "MSLTPRVNSGGAVVADAYGRPLKDLRIAVTPECNLDCFFCHMEGATESGPMRPGSWSPVLSVEDYDIIGEAASRLGVDSFKLTGGEPLIRGDVDKIVAVLARYGEVSMTTNGILLPLKASSLKRAGLARVNVSLHSISEEVYEKITRRRAVKLALKGVEAALKAGLRVKVNMVLLRGLNEGEFWRLLRLAEDLGFDLQVIEVHPAGRGRKVLSSFRRPIDVVEERLSSMAVAVETGRLHNRRVYRLPSGVRVYLVDPVENPVFCMGCYRVRLTWDGRLLPCIYWKGPYPSVAEALKRGGSREEKVWRVMKILLEANALRRPTYLFRLHDGQEPQAPSTGRGLRLTLPGKAKAERLAYSTLKAPLIEG"
measured_parameter = "soluble on expression in E. coli"
result_value = "not soluble"

[[record]]
biosequence = "MGSDKIHHHHHHMMTLTVEYYFTHPQDKLGMYASDPEDNSQEHGHEFAELVIVEEGHGLHVINGRPLYIQQGDVFYVQPGDVHYYDELGTLKLINVLINPAVAFGYLQQMEGLLQQLSAQRAACYGWLAPETRSYCRELVEKIFSPALRAADNTPLRESLFFQLVTTILTAESEAEYSSTRYKLHKLLTWLQEHCFEEHNWQQLAEQFHLTTRTAFRHIKEATGLTPDNYLKRLRLVSARVKLRETEMTITEVAYLCGFANSNHFTTLYKKVFGLTPSADRRRPPG"
measured_parameter = "soluble on expression in E. coli"
result_value = "not soluble"


---

PROTOCOL SUMMARY: soluble on expression in E. coli; label from the status in PepcDB or PDB records
MEASURED PARAMETER: soluble on expression in E. coli

[[record]]
biosequence = "MKLSLRQLQIFCAVAQHGSTTSAAISVSLSQSATSAALNELESALDTRLFDRVGKRLVLNDNGHALLPQARRMLENAQQIEASFLPGHAGLKTRLRVGCSTTIGNYVLPLILGELRQSTPHLRVDVDMANSMAIARRVADFEIDMGLIEGPCHLPELSAEPWLIDELLIAAGQRHPLALKQQVTLDDLRTAEWLLREPGSGTREEVEQLLLRHLHDLAETRQIGSSEAIKHTLAQGIGISCLSRWVVRDLLASEVLVELPHALPALTRRFFLIRHRDKYISPGLERFWEKCSQFVSQE"
result_value = "not soluble"

[[record]]
biosequence = "MGSDKIHHHHHHADSDDENSNFSSGITGMNLSAEVLKHQPMVEKYARENGISEYVNVLLAIIQVESGGTAEDVMQSSESLGLPPNSLDTESSIKQGCKYFASLLSSSKNQGIDDLNVAIQSYNYGGGYVGYVAGKGKKHTFNLAESFAREKSGGKKVTYTNPIAVAKNGGWRWNYGNMFYVELVNQYLTVPQVSGELAQKVMNEALKYQGWKYVYGGSNPNTSFDCSGLTQWCYGKAGISLPRTAQAQYDATQHLPLSQAKAGDLVFFHSTYNAGSYVTHVGIYVGNNQMYHAGDPIGYADLSSSYWQQHLIGAGRVKQ"
result_value = "not soluble"

